- METHOD SUMMARY: Relative recalcitrancy classification of organic contaminants (FIG. 1)
- Assay type: physicochemical
- CONDITION: by solubility, volatility and non-reactivity standards
MEASUREMENT LABEL: relative recalcitrancy

> print(dat)
                                   compound    value.observed
1                        c1ccccc1 [Benzene]  non-recalcitrant
2  CCCCC(CC)COC(=O)c1ccccc1C(=O)OCC(CC)CCCC (stereo not shown) [bis(2-ethylhexyl)phthalate]      recalcitrant
3                         CCCCCCC [heptane]  non-recalcitrant
4         c1ccc2cc3ccccc3cc2c1 [anthracene]      recalcitrant
